study target: CaHof1
procedure details: SPOT peptide array binding signal intensity (averaged, normalized) (arbitrary units (background-subtracted, floor 0; scale differs between SH3 domains)); higher = stronger binding of the SH3 domain to the peptide
metric name: SPOT peptide array binding signal intensity
Just the number, please, no unit attached.

Completed entries (count: 2):
* LKVTPGRRAPTISKI | 0.5
* IFLRISINFPLNYPN | 1.25

Find the recorded SPOT peptide array binding signal intensity belonging to EQEEIAPSLPSRNSI and report it.
1
